Biological target: UniProt:P80457
Assay: Xanthine oxidase inhibitory activity assay, spectrophotometric at 295 nm
Type: biochemical
Details: Table 3, triplicate; read-out: IC50 ± SEM
pIC50: −log10 of the molar value.
Let's look at some compounds and their measured pIC50.
VALUE TYPE: pIC50

[[record]]
cpd_smiles = "Nc1nc(N)c2[nH]cnc2n1"
study_system = "UniProt:P80457"
value_type = "pIC50"
reported = "< 3.70"

[[record]]
cpd_smiles = "Nc1nc(Cl)c2nc[nH]c2n1"
study_system = "UniProt:P80457"
value_type = "pIC50"
reported = "< 3.70"

[[record]]
cpd_smiles = "Cc1ccc2[nH]cnc2c1"
study_system = "UniProt:P80457"
value_type = "pIC50"
reported = "< 3.70"

[[record]]
cpd_smiles = "Cc1cc2nc[nH]c2cc1C"
study_system = "UniProt:P80457"
value_type = "pIC50"
reported = "< 3.70"

[[record]]
cpd_smiles = "COc1nc(N)nc2nc[nH]c12"
study_system = "UniProt:P80457"
value_type = "pIC50"
reported = "< 3.70"

[[record]]
cpd_smiles = "Nc1ncc2[nH]cnc2n1"
study_system = "UniProt:P80457"
value_type = "pIC50"
reported = "< 3.70"


* * *

Target: UniProt P80457
Test: Xanthine oxidase inhibitory activity assay, spectrophotometric at 295 nm
Type: biochemical
Conditions: unit inferred; read-out: IC50 on xanthine oxidase
pIC50: −log10 of the molar value. Where a name gives a salt, the structure may show the parent alone.
VALUE TYPE: pIC50

[[record]]
molecule = "Nc1nc2nc[nH]c2c(=S)[nH]1"
value_type = "pIC50"
reported = 4.03

[[record]]
molecule = "Nc1ncnc2[nH]ncc12 [4-Aminopyrazolo[3,4-d]pyrimidine]"
value_type = "pIC50"
reported = 4.52

[[record]]
molecule = "O=[N+]([O-])c1ccc2[nH]cnc2c1 [5-Nitrobenzimidazole nitrate salt]"
value_type = "pIC50"
reported = 4.06

